Tested on: non-small cell lung cancer cell line H460
Procedure Text: In vitro human cancer cell line cytotoxicity (proliferation) assay in H460, CellTiter-Glo, 72 hours
Type: cell-based
Details: Homo sapiens, NCI-H460, 72 h, H460 cells, DMSO condition (no AKR1C3 inhibitor), read-out: CTG H460: Avg IC50 (nM) [Assay Condition: DMSO]
Task for the reader: assign each of the following compounds its reported IC50.

What value of IC50 has been reported for the following compound? CC(OP(=O)(N1C[C@H]1C)N1C[C@H]1C)c1ccc([N+](=O)[O-])c(Oc2ccc(-c3ccc(F)cn3)c(F)c2)c1 (some centres unmarked)
10 to 50 nM

What value of IC50 has been reported for the following compound? O=[N+]([O-])c1ccc2c(c1Oc1ccc(F)c(OCC3CC3)c1)CC[C@H]2OP(=O)(N1CC1)N1CC1
< 10 nM

What value of IC50 has been reported for the following compound? O=[N+]([O-])c1ccc2c(c1Oc1cccc(-c3ccc(F)cc3)c1)CC[C@@H]2OP(=O)(N1CC1)N1CC1
< 10 nM

What value of IC50 has been reported for the following compound? COc1ccc(Oc2c([N+](=O)[O-])ccc3c2CC[C@@H]3OP(=O)(N2CC2)N2CC2)cc1-c1ncccn1
< 10 nM

What value of IC50 has been reported for the following compound? CN1Cc2ccc(Oc3c([N+](=O)[O-])ccc4c3CCC4OP(=O)(N3CC3)N3CC3)cc2C1=O (centres unmarked)
< 10 nM
